- study system: Fibroblast growth factor 2 (Homo sapiens) (UniProt P09038)
- Sequence (P09038 whole entry, looked up): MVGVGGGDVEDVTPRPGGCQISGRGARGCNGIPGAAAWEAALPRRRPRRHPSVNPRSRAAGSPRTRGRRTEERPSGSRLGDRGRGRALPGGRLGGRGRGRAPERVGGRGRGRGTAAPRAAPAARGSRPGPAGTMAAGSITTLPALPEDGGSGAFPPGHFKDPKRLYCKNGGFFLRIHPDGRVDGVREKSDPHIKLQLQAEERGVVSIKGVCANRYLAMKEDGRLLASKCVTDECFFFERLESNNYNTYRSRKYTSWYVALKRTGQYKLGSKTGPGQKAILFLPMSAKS
- procedure summary: FGF2 binders on small-molecule microarrays, primary screen, biochemical, small-molecule microarray, 635/667 nm fluorescence (AID 1133)
- condition parameters: small-molecule microarray binding, FGF2, fluorescence 635/667; higher = more signal
Assign class by composite z-score: not lower than 0.3 means YES; lower than 0.3 means NO.

molecule | study system | assigned class
CN1C(=O)C2C=CC(C(O)C#Cc3ccccc3)N(N3CCCCC3)C2C1=O (stereo not drawn) | Fibroblast growth factor 2 (Homo sapiens) (UniProt P09038) | YES
CC(C)NC(=O)[C@@H]1c2ccccc2C(=O)N(C2Cc3ccccc3C2)[C@H]1c1ccc(CO)cc1 | Fibroblast growth factor 2 (Homo sapiens) (UniProt P09038) | NO
COc1cc(Br)cc(C(O)C2C=CC3C(=O)N(C)C(=O)C3N2N2CCCCC2)c1OC (stereo not drawn) | Fibroblast growth factor 2 (Homo sapiens) (UniProt P09038) | NO
C=CC[C@@]1(C(=O)NCCN2CCOCC2)N=C(c2ccc(OCCCO)cc2)O[C@@H]1c1ccccc1N=[N+]=[N-] | Fibroblast growth factor 2 (Homo sapiens) (UniProt P09038) | YES
COCCOC(=O)N1C(=O)[C@@]2(c3cc(C#Cc4ccc(OC)cc4)ccc31)[C@H](c1ccc(O)cc1)N1[C@H](c3ccccc3)[C@H](c3ccccc3)OC(=O)[C@H]1[C@@H]2C(=O)N1CCc2cc(OC)c(OC)cc2C1 | Fibroblast growth factor 2 (Homo sapiens) (UniProt P09038) | YES
Cc1ccc(S[C@]2(C(=O)O)CC(=O)N(C(C)C)[C@@H]2c2ccc(CO)cc2I)cc1 | Fibroblast growth factor 2 (Homo sapiens) (UniProt P09038) | NO
C=CCC(OC(C)=O)[C@@H]1[C@@H](N(Cc2ccc(-c3ccccc3)cc2)C(=O)c2ccc(-c3ccccc3)cc2)c2cc(OCCCO)ccc2N1C(=O)Cc1ccc2ccccc2c1 (stereo partly drawn) | Fibroblast growth factor 2 (Homo sapiens) (UniProt P09038) | NO
C=C(CC1([C@@H](NP(=O)(c2ccccc2)c2ccccc2)[C@H]2C[C@@H]2CCCC)CC1)c1ccccc1 | Fibroblast growth factor 2 (Homo sapiens) (UniProt P09038) | NO
